Record: compiled pIC50 on Tyrosine-protein kinase receptor UFO (Homo sapiens) from multiple reports.
pIC50: −log10 of the molar value.

Worked cases, pIC50 given:
compound smiles	assayed system	pIC50
COC[C@H](C)Nc1ncc2c(-c3cnn(CC(C)(C)N4CCOCC4)c3)cc([C@H]3CC[C@H](O)CC3)n2n1	Tyrosine-protein kinase receptor UFO (Homo sapiens)	≥ 7.00
CCCCC[C@H](C)Nc1ncc2c(N3CCC(C(=O)O)CC3)cc([C@H]3CC[C@H](O)CC3)n2n1	Tyrosine-protein kinase receptor UFO (Homo sapiens)	6.00 to 7.00
CCC[C@H](C)Nc1ncc2c(OC3CCN(C)CC3)ncc([C@H]3CC[C@H](O)CC3)c2n1	Tyrosine-protein kinase receptor UFO (Homo sapiens)	6.00 to 7.00

Look up and report measured pIC50 (Tyrosine-protein kinase receptor UFO (Homo sapiens)) for the following compound: `CCc1ccc2c(c1)c(=O)c(C(=O)Nc1ccc(Oc3ncnc4[nH]ccc34)c(F)c1)c(C)n2C` 6.80

Look up and report measured pIC50 (Tyrosine-protein kinase receptor UFO (Homo sapiens)) for the following compound: `COC[C@H](C)Nc1ncc2c(-c3cnn(C(C)(C)C(=O)N4CC[C@@H](O)C4)c3)cc([C@H]3CC[C@H](O)CC3)n2n1` ≥ 7.00

Look up and report measured pIC50 (Tyrosine-protein kinase receptor UFO (Homo sapiens)) for the following compound: `COC[C@H](C)Nc1ncc2c(-c3cnn(CC(=O)O)c3)cc([C@H]3CC[C@H](O)CC3)n2n1` ≥ 7.00

Look up and report measured pIC50 (Tyrosine-protein kinase receptor UFO (Homo sapiens)) for the following compound: `COC[C@H](C)Nc1ncc2c(-c3ccc(CN4CCN(c5nccc(C)n5)CC4)cc3)cc([C@H]3CC[C@H](O)CC3)n2n1` ≥ 7.00

----------
Record: compiled pIC50 on Tyrosine-protein kinase receptor UFO (Homo sapiens, UniProt P30530) from multiple reports.
pIC50: −log10 of the molar value.

Worked cases, pIC50 given:
molecule	endpoint name	readout value
CN1CCN(c2ccc(Nc3ncc4c(n3)n3c(cc5ccccc53)c(=O)n4C)cc2C(F)(F)F)CC1	pIC50	5.30 to 6.00
CC(CCF)Nc1ncc2c(-c3ccc(CN4CCOCC4)cc3)cc(C3CCC(O)CC3)n2n1 (centres unmarked)	pIC50	≥ 7.00
Cc1nccn1CCNc1ncc2c(OC3CCNCC3)ncc([C@H]3CC[C@H](O)CC3)c2n1	pIC50	5.00 to 6.00
COc1cnc2c(Oc3ccc(NC(=O)c4cnc(C)c(C5=CCOCC5)c4O)cc3)ccnc2c1	pIC50	≥ 7.00

Look up and report measured pIC50 (Tyrosine-protein kinase receptor UFO (Homo sapiens, UniProt P30530)) for the following molecule: `CC(C)OC[C@H](C)Nc1ncc2c(-c3ccc(CN4CCOCC4)cc3)cc([C@H]3CC[C@H](O)CC3)n2n1` 6.00 to 7.00

Look up and report measured pIC50 (Tyrosine-protein kinase receptor UFO (Homo sapiens, UniProt P30530)) for the following molecule: COCC(C)Nc1ncc2c(-c3ccc(CN4CCCC4)cc3)cc(C3CCC(O)CC3)n2n1 (centres unmarked) ≥ 7.00

Look up and report measured pIC50 (Tyrosine-protein kinase receptor UFO (Homo sapiens, UniProt P30530)) for the following molecule: `CN1CCC(n2cc(-c3cnc(N)c(-c4ncc(-c5cccc(Cl)c5)o4)c3)cn2)CC1` > 6.30

Look up and report measured pIC50 (Tyrosine-protein kinase receptor UFO (Homo sapiens, UniProt P30530)) for the following molecule: `CNS(=O)(=O)c1ccc(-c2cc([C@H]3CC[C@H](O)CC3)n3nc(N[C@@H](C)COC(F)F)ncc23)cn1` ≥ 7.00

----------
Record: compiled IC50 on Tyrosine-protein kinase receptor UFO (Homo sapiens) from multiple reports.

molecule	endpoint name	readout value
COC[C@H](C)Nc1ncc2c(-c3ccc(CN4CCOCC4)nc3)cc([C@H]3CC[C@H](O)CC3)n2n1	IC50	100 to 1000 nM
COc1cc2nccc(Oc3ccc(NC(=O)c4nn(C(C)C)cc(-c5ccc(F)cc5)c4=O)nc3)c2cc1OC	IC50	11 nM
O[C@H]1CC[C@H](c2cnc(OC3CCOCC3)c3cnc(Nc4ccc(Cl)cc4)nc32)CC1	IC50	≤ 100 nM
Cc1cc(-c2cc(C3CCC(O)CC3)n3nc(NC(C)CC4CC4)ncc23)ccn1 (centres unmarked)	IC50	≤ 100 nM
COCCOc1nc(Nc2ccc(CN3CCN(C)CC3)cc2)nc2[nH]cc(-c3ccc(OCc4ccccn4)cc3)c12	IC50	< 30 nM
COC[C@H](C)Nc1ncc2c(-c3ccc(C(=O)N4CCOCC4)nc3)cc([C@H]3CC[C@H](O)CC3)n2n1	IC50	100 to 1000 nM
CCCCNc1cc2c(cn1)c(OC1CCNCC1)ncc2[C@H]1CC[C@H](O)CC1	IC50	≤ 100 nM
CNC(=O)c1ncc(-c2cc([C@H]3CC[C@H](O)CC3)n3nc(N[C@@H](C)COC)ncc23)cn1	IC50	100 to 1000 nM

Look up and report measured IC50 (Tyrosine-protein kinase receptor UFO (Homo sapiens)) for the following molecule: `COC[C@H](C)Nc1ncc2c(OC3CC(C)(C)N(C)C(C)(C)C3)ncc([C@H]3CC[C@H](O)CC3)c2n1` ≤ 100 nM

Look up and report measured IC50 (Tyrosine-protein kinase receptor UFO (Homo sapiens)) for the following molecule: `COc1cc2nccc(Oc3cc(F)c(NC(=O)c4c(C)n(C)c(C)c(C5CC5)c4=O)cc3F)c2nc1OC` ≤ 100 nM

Look up and report measured IC50 (Tyrosine-protein kinase receptor UFO (Homo sapiens)) for the following molecule: `Cc1ccc(NS(=O)(=O)c2ccccc2Cl)c(F)c1C1=Cc2cnc(NC3COC3)nc2N2CCN=C12` > 10000 nM

Look up and report measured IC50 (Tyrosine-protein kinase receptor UFO (Homo sapiens)) for the following molecule: `COc1cc2ncnc(Oc3ccc(NC(=O)c4cn(CCF)c5c(F)c(N6CCN(C)CC6)c(F)cc5c4=O)cc3F)c2cc1OC` 224 nM

Look up and report measured IC50 (Tyrosine-protein kinase receptor UFO (Homo sapiens)) for the following molecule: `COc1cc2nccc(Oc3ccc(NC(=O)c4nn(C5CCOCC5)cc(-c5ccc(C)cc5)c4=O)nc3)c2cc1OC` 3 nM

Look up and report measured IC50 (Tyrosine-protein kinase receptor UFO (Homo sapiens)) for the following molecule: `COC[C@H](C)Nc1ncc2c(-c3ccnc(O[C@@H]4CCCN(C)C4)c3)cc([C@H]3CC[C@H](O)CC3)n2n1` ≤ 100 nM

Look up and report measured IC50 (Tyrosine-protein kinase receptor UFO (Homo sapiens)) for the following molecule: `COc1cc2nccc(Oc3ccc(NC(=O)c4ccc(C)n(-c5ccncc5)c4=O)cc3F)c2nc1OC` ≤ 100 nM

Look up and report measured IC50 (Tyrosine-protein kinase receptor UFO (Homo sapiens)) for the following molecule: `COc1cc2nccc(Oc3ccc(NC(=O)c4nn(CC5CCSCC5)cc(-c5ccc(C)cc5)c4=O)nc3)c2cc1OC` 19 nM

Look up and report measured IC50 (Tyrosine-protein kinase receptor UFO (Homo sapiens)) for the following molecule: `COCC(=O)N1C(C)(C)CC(Oc2ncc([C@H]3CC[C@H](O)CC3)c3nc(N[C@@H](C)CC(F)(F)F)ncc23)CC1(C)C` 1000 to 10000 nM

----------
Record: compiled IC50 on Tyrosine-protein kinase receptor UFO (Homo sapiens, UniProt P30530) from multiple reports.

Worked cases, IC50 given:
compound smiles	IC50
CCN1CCC(n2cc(-c3cnc(N)c(-c4ncc(-c5ccccc5)o4)c3)cn2)CC1	< 500 nM
COC[C@H](C)Nc1ncc2c(-c3ccc(N4CCOCC4)nc3)cc([C@H]3CC[C@H](O)CC3)n2n1	100 to 1000 nM
CC(C)(C)OC(=O)N1CCC(n2cc(-c3cnc(N)c(-c4nnc(-c5ccc(F)cc5)o4)c3)cn2)CC1	1000 to 10000 nM
COC[C@H](C)Nc1ncc2c(-c3cncc(C)c3)cc([C@H]3CC[C@H](O)CC3)n2n1	100 to 1000 nM
O=C(Nc1ccc(Oc2ccnc(NC(=O)C3CC3)c2)c(F)c1)c1c2n(n(-c3ccccc3)c1=O)CCOC2	5 nM

Complete the entry with IC50 for `CC(=O)N[C@H]1C[C@@H](Oc2ncc([C@H]3CC[C@H](O)CC3)c3nc(N[C@@H](C)CC(F)(F)F)ncc23)C1` ≤ 100 nM

Complete the entry with IC50 for `COC[C@H](C)Nc1ncc2c(-c3ccnc(N4CCNC(=O)C4)c3)cc([C@H]3CC[C@H](O)CC3)n2n1` ≤ 100 nM

----------
Record: compiled IC50 on Tyrosine-protein kinase receptor UFO (Homo sapiens) from multiple reports.

Worked cases, IC50 given:
compound smiles	IC50
COC[C@H](C)Nc1ncc2c(OC3CCOCC3)ncc([C@H]3CC[C@H](NC(C)=O)CC3)c2n1	1000 to 10000 nM
COC[C@H](C)Nc1ncc2c(-c3cnn(Cc4cnccn4)c3)cc([C@H]3CC[C@H](O)CC3)n2n1	≤ 100 nM
COCCN1C(C)(C)CC(Oc2ncc([C@H]3CC[C@H](O)CC3)c3nc(N[C@@H](C)CCO)ncc23)CC1(C)C	100 to 1000 nM

Look up and report measured IC50 (Tyrosine-protein kinase receptor UFO (Homo sapiens)) for the following molecule: `COC[C@H](C)Nc1ncc2c(O[C@H]3C[C@H](O)C3)ncc([C@H]3CC[C@H](O)CC3)c2n1` 100 to 1000 nM

Look up and report measured IC50 (Tyrosine-protein kinase receptor UFO (Homo sapiens)) for the following molecule: `Nc1ncc(-c2cnn(C3CCCCC3)c2)cc1-c1ccc(-c2ccccc2)o1` 1000 to 10000 nM

Look up and report measured IC50 (Tyrosine-protein kinase receptor UFO (Homo sapiens)) for the following molecule: `COC[C@H](C)Nc1ncc2c(-c3ccnc(N4C[C@H]5CC[C@@H](C4)O5)c3)cc([C@H]3CC[C@H](O)CC3)n2n1` ≤ 100 nM

Look up and report measured IC50 (Tyrosine-protein kinase receptor UFO (Homo sapiens)) for the following molecule: `CCCCC[C@H](C)Nc1ncc2c(C3=CC[C@@H](C(=O)N4CCOCC4)CC3)cc([C@H]3CC[C@H](O)CC3)n2n1` ≤ 100 nM

Look up and report measured IC50 (Tyrosine-protein kinase receptor UFO (Homo sapiens)) for the following molecule: `C[C@H](CC(F)(F)F)Nc1ncc2c(O[C@H]3C[C@@H](O)C3)ncc([C@H]3CC[C@H](O)CC3)c2n1` 1000 to 10000 nM

Look up and report measured IC50 (Tyrosine-protein kinase receptor UFO (Homo sapiens)) for the following molecule: `CCCCNc1ncc2c3ccc(CNC4CCOCC4)cc3c(=O)n([C@H]3CC[C@H](O)CC3)c2n1` > 1000 nM

Look up and report measured IC50 (Tyrosine-protein kinase receptor UFO (Homo sapiens)) for the following molecule: `COC[C@H](C)Nc1ncc2c(-c3ccc(C(=O)NC(C)C)nc3)cc([C@H]3CC[C@H](O)CC3)n2n1` 100 to 1000 nM
